Test system: A431 cells
Experiment: Tumor cell proliferation in vitro
Type: cell-based, human
Conditions: Homo sapiens, A-431, read-out: IC50, proliferation
pIC50: −log10 of the molar value.

| molecule | pIC50 |
| --- | --- |
| COc1cc2c(Nc3ccc(Br)cc3F)ncnc2cc1OCC1CCN(C)CC1 [vandetanib, reference compound] | 5.94 |

---

Biological target: FLT-1 (Homo sapiens, UniProt P17948)
Sequence (P17948 27-1338): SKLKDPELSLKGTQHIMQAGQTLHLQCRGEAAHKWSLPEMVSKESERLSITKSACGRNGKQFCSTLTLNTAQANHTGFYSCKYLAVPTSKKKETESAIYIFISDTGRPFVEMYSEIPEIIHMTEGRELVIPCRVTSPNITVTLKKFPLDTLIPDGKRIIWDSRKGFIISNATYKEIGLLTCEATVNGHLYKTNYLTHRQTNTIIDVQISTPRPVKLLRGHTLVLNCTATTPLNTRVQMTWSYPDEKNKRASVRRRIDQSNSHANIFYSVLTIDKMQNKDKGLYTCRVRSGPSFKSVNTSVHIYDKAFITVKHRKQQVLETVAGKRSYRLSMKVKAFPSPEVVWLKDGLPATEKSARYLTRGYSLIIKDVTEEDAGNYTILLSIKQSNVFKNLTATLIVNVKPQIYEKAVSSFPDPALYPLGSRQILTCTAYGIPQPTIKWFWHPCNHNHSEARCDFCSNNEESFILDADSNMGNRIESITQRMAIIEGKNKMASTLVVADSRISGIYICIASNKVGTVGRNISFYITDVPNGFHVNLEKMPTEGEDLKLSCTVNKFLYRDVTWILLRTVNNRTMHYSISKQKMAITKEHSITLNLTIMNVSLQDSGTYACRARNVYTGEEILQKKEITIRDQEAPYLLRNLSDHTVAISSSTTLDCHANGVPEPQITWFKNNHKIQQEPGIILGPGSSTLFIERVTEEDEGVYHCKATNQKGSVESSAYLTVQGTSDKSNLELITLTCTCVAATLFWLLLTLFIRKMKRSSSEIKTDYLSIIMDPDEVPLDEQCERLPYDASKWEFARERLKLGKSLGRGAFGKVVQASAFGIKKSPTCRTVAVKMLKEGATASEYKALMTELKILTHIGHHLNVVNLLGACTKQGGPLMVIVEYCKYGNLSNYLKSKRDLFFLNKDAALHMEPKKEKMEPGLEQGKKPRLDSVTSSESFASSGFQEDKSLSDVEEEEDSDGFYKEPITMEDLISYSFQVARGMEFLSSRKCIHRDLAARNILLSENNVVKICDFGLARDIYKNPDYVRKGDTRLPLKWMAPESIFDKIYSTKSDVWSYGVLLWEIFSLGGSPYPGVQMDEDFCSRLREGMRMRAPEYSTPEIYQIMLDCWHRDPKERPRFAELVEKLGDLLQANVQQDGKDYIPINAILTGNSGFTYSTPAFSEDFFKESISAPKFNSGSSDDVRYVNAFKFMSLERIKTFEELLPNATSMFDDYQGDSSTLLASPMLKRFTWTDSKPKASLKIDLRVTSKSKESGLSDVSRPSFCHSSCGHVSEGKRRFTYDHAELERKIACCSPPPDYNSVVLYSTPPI
pIC50: −log10 of the molar value.

| structure_smiles | pIC50 |
| --- | --- |
| COc1cc2c(Nc3ccc(Br)cc3F)ncnc2cc1OCCCCN(C)C.Cl.Cl | 7.68 |

---

Molecular target: SRC (Homo sapiens)
Sequence (P12931 whole entry): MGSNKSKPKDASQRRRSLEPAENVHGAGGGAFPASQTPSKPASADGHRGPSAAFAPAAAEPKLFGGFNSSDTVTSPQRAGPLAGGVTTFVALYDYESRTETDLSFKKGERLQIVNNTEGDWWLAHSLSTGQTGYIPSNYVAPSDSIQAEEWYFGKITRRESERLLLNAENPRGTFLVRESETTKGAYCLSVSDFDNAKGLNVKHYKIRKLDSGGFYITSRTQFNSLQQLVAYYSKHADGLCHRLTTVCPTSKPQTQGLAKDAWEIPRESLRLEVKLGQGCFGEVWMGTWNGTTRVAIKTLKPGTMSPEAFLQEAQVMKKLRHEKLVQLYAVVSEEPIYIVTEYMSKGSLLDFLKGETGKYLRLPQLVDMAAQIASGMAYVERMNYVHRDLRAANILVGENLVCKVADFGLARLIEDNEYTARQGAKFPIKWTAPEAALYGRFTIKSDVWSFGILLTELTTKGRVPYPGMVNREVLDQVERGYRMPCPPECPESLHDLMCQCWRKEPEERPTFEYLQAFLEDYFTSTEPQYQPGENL
Assay: Tyrosine kinase inhibition
Assay type: biochemical
pIC50: −log10 of the molar value.

| structure_smiles | tested_target | pIC50 |
| --- | --- | --- |
| COc1cc2c(Nc3ccc(Br)cc3F)ncnc2cc1OCCCCN(C)C.Cl.Cl | SRC (Homo sapiens) | 7.18 |
